- assayInfo: Lipophilicity by shake-flask method
- details: pH 7.4
measuredQuantity: logD at 30 min
Could you respond with only the numeric value?

Some entries whose results are on file:
INSERT INTO assay_data (compound, numericvalue) VALUES
  ('CNCCOc1ccc(C(=O)O[C@@H]2/C=C/C(=O)O[C@@H](O)CCC/C=C/[C@@H]3C[C@H](O)C[C@H]32)cc1C(C)=O', 1.94),
  ('CC(=O)c1cc(C(=O)OC2/C=C/C(=O)O[C@@H](O)CCC/C=C/[C@@H]3C[C@H](O)C[C@@H]23)ccc1OCCN1CCC=C(C(=O)O)C1 (some centres unmarked)', 2.07),
  ('CC(=O)c1cc(C(=O)O[C@@H]2/C=C/C(=O)O[C@@H](O)CCC/C=C/[C@@H]3C[C@H](O)C[C@H]32)ccc1OCCN1CCCC(O)C1=O (some centres unmarked)', 2.06);

Please fill in: logD at 30 min reported for CC(=O)c1cc(C(=O)O[C@@H]2/C=C/C(=O)O[C@@H](O)CCC/C=C/[C@@H]3C[C@H](O)C[C@H]32)ccc1OCCN(C)C = 1.99

Please fill in: logD at 30 min reported for CC(=O)c1cc(C(=O)O[C@@H]2/C=C/C(=O)O[C@@H](O)CCC/C=C/[C@@H]3C[C@H](O)C[C@H]32)ccc1OCCS(=O)(=O)O = 1.88

====

Measured MCF-7 antiproliferative potency, fold higher than Ral of individual entries
- Tested on: MCF-7 cell lines
- assayInfo: MTT antiproliferative assay
- Format: cell-based, human
- details: ratio of IC50 values
Give the number; fold is assumed, so skip it.

Some entries whose results are on file:
INSERT INTO assay_data (molecule, unittag, numericvalue) VALUES
  ('CC(=O)c1cc(C(=O)O[C@@H]2/C=C/C(=O)O[C@@H](O)CCC/C=C/[C@@H]3C[C@H](O)C[C@H]32)ccc1OCCN1CCCC1 [Compound 3DPQ-11]', 'fold', 1.10),
  ('CC(=O)c1cc(C(=O)O[C@@H]2/C=C/C(=O)O[C@@H](O)CCC/C=C/[C@@H]3C[C@H](O)C[C@H]32)ccc1OCCN(C)C [Compound 3DPQ-2]', 'fold', 1.21);

Shift focus to the following entry.
Please fill in: MCF-7 antiproliferative potency, fold higher than Ral reported for CC(=O)c1cc(C(=O)O[C@@H]2/C=C/C(=O)O[C@@H](O)CCC/C=C/[C@@H]3C[C@H](O)C[C@H]32)ccc1OCCN1C=Cc2ccccc2C1 [Compound 3DPQ-7] = 1.14

====

- assayInfo: MTT antiproliferative assay (neutral control)
- details: human, MRC-5 lung fibroblast cells, MRC-5 (IC50 nM), references in Table S17
measuredQuantity: IC50 at 48 h

Please fill in: IC50 at 48 h reported for CC/C(=C(\c1ccc(O)cc1)c1ccc(OCCN(C)C)cc1)c1ccccc1 [Compound 4-OHT., 4-hydroxytamoxifen, reference compound] = > 100 nM

====

- assayInfo: Liver oxidative stress markers after treatment of MNU-induced rats
- Type: in vivo, Wistar rats
- details: total protein content, liver, dose 50 mg/kg
Label y for high-side TP (at or above 50 g/L) and n for low-side TP (below it).

Please review the following examples before continuing.
INSERT INTO assay_data (compound, grouplabel) VALUES
  ('CC/C(=C(\c1ccc(O)cc1)c1ccc(OCCN(C)C)cc1)c1ccccc1 [Compound 4-OHT., 4-hydroxytamoxifen, reference compound]', 'n'),
  ('CC(=O)c1cc(C(=O)O[C@@H]2/C=C/C(=O)O[C@@H](O)CCC/C=C/[C@@H]3C[C@H](O)C[C@H]32)ccc1OCCN1CCCC(O)C1=O (some centres unmarked)', 'y'),
  ('CC(=O)c1cc(C(=O)O[C@@H]2/C=C/C(=O)O[C@@H](O)CCC/C=C/[C@@H]3C[C@H](O)C[C@H]32)ccc1OCCN(C)C', 'n');

Decide: TP of CC(=O)c1cc(C(=O)OC2/C=C/C(=O)O[C@@H](O)CCC/C=C/[C@@H]3C[C@H](O)C[C@@H]23)ccc1OCCN1CCC=C(C(=O)O)C1 (some centres unmarked) >= 50 g/L?
n
